System: HeLa Kyoto;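 note: synchronized HeLa Kyoto cells (double thymidine block for G1/S, nocodazole release for mitosis), protein amounts in NP-40 versus SDS lysates quantified by mass spectrometry, three biological replicates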
Assay: solubility change mitosis vs G1/S (difference of NP-40 vs SDS log2 ratios) (log2 ratio difference); higher = more soluble in mitosis
// map solubility change mitosis (log2) onto a label; ranges low = under -0.04, middle = from -0.04 up to 0.09, high = 0.09 and over

Which solubility change mitosis (log2) band matches MSQKQEEENPAEETGEEKQDTQEKEGILPERAEEAKLKAKYPSLGQKPGGSDFLMKRLQKGQKYFDSGDYNMAKAKMKNKQLPSAGPDKNLVTGDHIPTPQDLPQRKSSLVTSKLAGGQVE [ENSA] ?
high

Classify this sequence: MEAQAQGLLETEPLQGTDEDAVASADFSSMLSEEEKEELKAELVQLEDEITTLRQVLSAKERHLVEIKQKLGMNLMNELKQNFSKSWHDMQTTTAYKKTHETLSHAGQKATAAFSNVGTAISKKFGDMSYSIRHSISMPAMRNSPTFKSFEERVETTVTSLKTKVGGTNPNGGSFEEVLSSTAHASAQSLAGGSRRTKEEELQC [TPD52L1]
high

Input MEALPLLAATTPDHGRHRRLLLLPLLLFLLPAGAVQGWETEERPRTREEECHFYAGGQVYPGEASRVSVADHSLHLSKAKISKPAPYWEGTAVIDGEFKELKLTDYRGKYLVFFFYPLDFTFVCPTEIIAFGDRLEEFRSINTEVVACSVDSQFTHLAWINTPRRQGGLGPIRIPLLSDLTHQISKDYGVYLEDSGHTLRGLFIIDDKGILRQITLNDLPVGRSVDETLRLVQAFQYTDKHGEVCPAGWKPGSETIIPDPAGKLKYFDKLN [PRDX4] ; output its category
low

Record MDAPRQVVNFGPGPAKLPHSVLLEIQKELLDYKGVGISVLEMSHRSSDFAKIINNTENLVRELLAVPDNYKVIFLQGGGCGQFSAVPLNLIGLKAGRCADYVVTGAWSAKAAEEAKKFGTINIVHPKLGSYTKIPDPSTWNLNPDASYVYYCANETVHGVEFDFIPDVKGAVLVCDMSSNFLSKPVDVSKFGVIFAGAQKNVGSAGVTVVIVRDDLLGFALRECPSVLEYKVQAGNSSLYNTPPCFSIYVMGLVLEWIKNNGGAAAMEKLSSIKSQTIYEIIDNSQGFYVCPVEPQNRSKMNIPFRIGNAKGDDALEKRFLDKALELNMLSLKGHRSVGGIRASLYNAVTIEDVQKLAAFMKKFLEMHQL [PSAT1] — which class?
low

Class label required: MSLEQRSLHCKPEEALEAQQEALGLVCVQAATSSSSPLVLGTLEEVPTAGSTDPPQSPQGASAFPTTINFTRQRQPSEGSSSREEEGPSTSCILESLFRAVITKKVADLVGFLLLKYRAREPVTKAEMLESVIKNYKHCFPEIFGKASESLQLVFGIDVKEADPTGHSYVLVTCLGLSYDGLLGDNQIMPKTGFLIIVLVMIAMEGGHAPEEEIWEELSVMEVYDGREHSAYGEPRKLLTQDLVQEKYLEYRQVPDSDPARYEFLWGPRALAETSYVKVLEYVIKVSARVRFFFPSLREAALREEEEGV [MAGEA1]
middle

Class? Entry: MKLGRAVLGLLLLAPSVVQAVEPISLGLALAGVLTGYIYPRLYCLFAECCGQKRSLSREALQKDLDDNLFGQHLAKKIILNAVFGFINNPKPKKPLTLSLHGWTGTGKNFVSKIIAENIYEGGLNSDYVHLFVATLHFPHASNITLYKDQLQLWIRGNVSACARSIFIFDEMDKMHAGLIDAIKPFLDYYDLVDGVSYQKAMFIFLSNAGAERITDVALDFWRSGKQREDIKLKDIEHALSVSVFNNKNSGFWHSSLIDRNLIDYFVPFLPLEYKHLKMCIRVEMQSRGYEIDEDIVSRVAEEMTFFPKEERVFSDKGCKTVFTKLDYYYDD [TOR1A]
low

Categorize the following entry: MSAFSEAALEKKLSELSNSQQSVQTLSLWLIHHRKHSRPIVTVWERELRKAKPNRKLTFLYLANDVIQNSKRKGPEFTKDFAPVIVEAFKHVSSETDESCKKHLGRVLSIWEERSVYENDVLEQLKQALYGDKKPRKRTYEQIKVDENENCSSLGSPSEPPQTLDLVRALQDLENAASGDAAVHQRIASLPVEVQEVSLLDKITDKESGERLSKMVEDACMLLADYNGRLAAEIDDRKQLTRMLADFLRCQKEALAEKEHKLEEYKRKLARVSLVRKELRSRIQSLPDLSRLPNVTGSHMHLPFAGDIYSED [RPRD1A]
low

Category lookup for the sequence MSAARESHPHGVKRSASPDDDLGSSNWEAADLGNEERKQKFLRLMGAGKKEHTGRLVIGDHKSTSHFRTGEEDKKINEELESQYQQSMDSKLSGRYRRHCGLGFSEVEDHDGEGDVAGDDDDDDDDSPDPESPDDSESDSESEKEESAEELQAAEHPDEVEDPKNKKDAKSNYKMMFVKSSGS [SMAP]
high

GET /class?item= MKGKEEKEGGARLGAGGGSPEKSPSAQELKEQGNRLFVGRKYPEAAACYGRAITRNPLVAVYYTNRALCYLKMQQHEQALADCRRALELDGQSVKAHFFLGQCQLEMESYDEAIANLQRAYSLAKEQRLNFGDDIPSALRIAKKKRWNSIEERRIHQESELHSYLSRLIAAERERELEECQRNHEGDEDDSHVRAQQACIEAKHDKYMADMDELFSQVDEKRKKRDIPDYLCGKISFELMREPCITPSGITYDRKDIEEHLQRVGHFDPVTRSPLTQEQLIPNLAMKEVIDAFISENGWVEDY [STUB1]
middle
